Each entry below carries its recorded binding signal.
EXPERIMENTAL TARGET: MBP-FoxP1dN (Mus musculus, UniProt P58462 326-579)
Sequence: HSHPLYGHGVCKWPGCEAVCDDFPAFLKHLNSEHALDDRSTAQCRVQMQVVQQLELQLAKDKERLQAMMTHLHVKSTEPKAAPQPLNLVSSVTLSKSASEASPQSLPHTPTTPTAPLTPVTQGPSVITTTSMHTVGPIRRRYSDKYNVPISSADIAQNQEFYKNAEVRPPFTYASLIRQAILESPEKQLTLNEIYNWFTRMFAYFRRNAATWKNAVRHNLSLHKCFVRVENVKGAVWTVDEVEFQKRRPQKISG
PROTOCOL TEXT: PD-seq (MBP pull-down with sequencing); 20 mM Tris-HCl pH 7.5, 100 mM NaCl, 1.5 mM MgCl2, 0.4 uM protein, 0.1 uM dsDNA library, 30 min, room temperature, amylose pull-down; high values mean tight binding
EXPERIMENTAL CONTEXT: protein: recombinant; tags: His6-MBP; chain copies: 2; dsDNA, one strand shown
Over roughly 16,000 sequences, “rpm ratio (pull-down/input)” has its median near 0.94; the highest 2% begin near 1.7. The sample holds the highest values, similar sequences and a random draw of the others, so the mix is not that of the screen.

What value of measured binding signal is listed for GATGATTGTTCTCCCAGCTGATGAATTAGATTTATCGAGTAAACAAATTTTCCTAATCTTTCTGTTCAAGCGCCATCTAC ?
1.13 RPM ratio (pull-down/input)

What value of measured binding signal is listed for GATGATTGTTCTCCCAGCTGATGAATTGTATGACTCGAGTAAACAAATTTTCCTAATCTTTCTGTTCAAGCGCCATCTAC ?
0.974 RPM ratio (pull-down/input)

What value of measured binding signal is listed for GATGATTGTTCTCCCAGCTGATGAATTAAAGGTCTCGAGTAAACAAATTTTCCTAATCTTTCTGTTCAAGCGCCATCTAC ?
0.774 RPM ratio (pull-down/input)

What value of measured binding signal is listed for GATGATTGTTCTCCCAGCTGATGAATTAGGTATATCGAGTAAACAAATTTTCCTAATCTTTCTGTTCAAGCGCCATCTAC ?
0.972 RPM ratio (pull-down/input)

What value of measured binding signal is listed for GATGATTGTTCTCCCAGCTGATGAATTATATTGATCGAGTAAACAAATTTTCCTAATCTTTCTGTTCAAGCGCCATCTAC ?
2.09 RPM ratio (pull-down/input)

What value of measured binding signal is listed for GATGATTGTTCTCCCAGCTGATGAATTACAAATGTCGAGTAAACAAATTTTCCTAATCTTTCTGTTCAAGCGCCATCTAC ?
1.44 RPM ratio (pull-down/input)

What value of measured binding signal is listed for GATGATTGTTCTCCCAGCTGATGAATTGATTATATCGAGTAAACAAATTTTCCTAATCTTTCTGTTCAAGCGCCATCTAC ?
1.26 RPM ratio (pull-down/input)

###

EXPERIMENTAL TARGET: MBP-FoxP1dN (Mus musculus, UniProt P58462 326-579)
Sequence: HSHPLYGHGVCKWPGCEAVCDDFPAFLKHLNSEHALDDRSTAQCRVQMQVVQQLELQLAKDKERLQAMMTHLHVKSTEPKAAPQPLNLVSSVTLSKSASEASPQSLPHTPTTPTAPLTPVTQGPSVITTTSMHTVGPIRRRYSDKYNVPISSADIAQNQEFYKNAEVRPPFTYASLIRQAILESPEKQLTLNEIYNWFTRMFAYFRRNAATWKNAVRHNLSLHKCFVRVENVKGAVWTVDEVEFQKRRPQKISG
PROTOCOL TEXT: PD-seq (MBP pull-down with sequencing); 20 mM Tris-HCl pH 7.5, 100 mM NaCl, 1.5 mM MgCl2, 0.4 uM protein, 0.1 uM dsDNA library, 30 min, room temperature, amylose pull-down; high values mean tight binding
EXPERIMENTAL CONTEXT: protein: recombinant; tags: His6-MBP; chain copies: 2; dsDNA, one strand shown
Whole data set: some 16,000 sequences, median “rpm ratio (pull-down/input)” near 0.94, cut for the highest 2% near 1.7. For the sample, the highest values were picked, then their nearest neighbours and some sequences at random.
Each entry below carries its recorded binding signal.

For orientation, consider the following solved cases.
SEQUENCE CHAIN | EXPERIMENTAL TARGET | OBSERVATION TYPE | OBSERVED MEASUREMENT
GATGATTGTTCTCCCAGCTGATGAATTTATTTATTCGAGTAAACAAATTTTCCTAATCTTTCTGTTCAAGCGCCATCTAC | MBP-FoxP1dN (Mus musculus, UniProt P58462 326-579) | binding signal | 2.17 RPM ratio (pull-down/input)
GATGATTGTTCTCCCAGCTGATGAATTACGTAAGTCGAGTAAACAAATTTTCCTAATCTTTCTGTTCAAGCGCCATCTAC | MBP-FoxP1dN (Mus musculus, UniProt P58462 326-579) | binding signal | 1.14 RPM ratio (pull-down/input)
GATGATTGTTCTCCCAGCTGATGAATTATTTGACTCGAGTAAACAAATTTTCCTAATCTTTCTGTTCAAGCGCCATCTAC | MBP-FoxP1dN (Mus musculus, UniProt P58462 326-579) | binding signal | 1.07 RPM ratio (pull-down/input)
GATGATTGTTCTCCCAGCTGATGAATTTCCGTCGTCGAGTAAACAAATTTTCCTAATCTTTCTGTTCAAGCGCCATCTAC | MBP-FoxP1dN (Mus musculus, UniProt P58462 326-579) | binding signal | 0.841 RPM ratio (pull-down/input)
GATGATTGTTCTCCCAGCTGATGAATTTTTAATATCGAGTAAACAAATTTTCCTAATCTTTCTGTTCAAGCGCCATCTAC | MBP-FoxP1dN (Mus musculus, UniProt P58462 326-579) | binding signal | 1.24 RPM ratio (pull-down/input)
GATGATTGTTCTCCCAGCTGATGAATTGTTTATTTCGAGTAAACAAATTTTCCTAATCTTTCTGTTCAAGCGCCATCTAC | MBP-FoxP1dN (Mus musculus, UniProt P58462 326-579) | binding signal | 2.77 RPM ratio (pull-down/input)
GATGATTGTTCTCCCAGCTGATGAATTTCCTGACTCGAGTAAACAAATTTTCCTAATCTTTCTGTTCAAGCGCCATCTAC | MBP-FoxP1dN (Mus musculus, UniProt P58462 326-579) | binding signal | 0.753 RPM ratio (pull-down/input)
GATGATTGTTCTCCCAGCTGATGAATTATTTTCATCGAGTAAACAAATTTTCCTAATCTTTCTGTTCAAGCGCCATCTAC | MBP-FoxP1dN (Mus musculus, UniProt P58462 326-579) | binding signal | 1.27 RPM ratio (pull-down/input)
GATGATTGTTCTCCCAGCTGATGAATTATGAGTCTCGAGTAAACAAATTTTCCTAATCTTTCTGTTCAAGCGCCATCTAC | MBP-FoxP1dN (Mus musculus, UniProt P58462 326-579) | binding signal | 0.886 RPM ratio (pull-down/input)
GATGATTGTTCTCCCAGCTGATGAATTTATTACCTCGAGTAAACAAATTTTCCTAATCTTTCTGTTCAAGCGCCATCTAC | MBP-FoxP1dN (Mus musculus, UniProt P58462 326-579) | binding signal | 1.2 RPM ratio (pull-down/input)

Report binding signal for GATGATTGTTCTCCCAGCTGATGAATTCGTTTATTCGAGTAAACAAATTTTCCTAATCTTTCTGTTCAAGCGCCATCTAC tested on MBP-FoxP1dN (Mus musculus, UniProt P58462 326-579).
1.25 RPM ratio (pull-down/input)

Report binding signal for GATGATTGTTCTCCCAGCTGATGAATTTCACTGGTCGAGTAAACAAATTTTCCTAATCTTTCTGTTCAAGCGCCATCTAC tested on MBP-FoxP1dN (Mus musculus, UniProt P58462 326-579).
0.806 RPM ratio (pull-down/input)

Report binding signal for GATGATTGTTCTCCCAGCTGATGAATTTTTTACCTCGAGTAAACAAATTTTCCTAATCTTTCTGTTCAAGCGCCATCTAC tested on MBP-FoxP1dN (Mus musculus, UniProt P58462 326-579).
0.943 RPM ratio (pull-down/input)

Report binding signal for GATGATTGTTCTCCCAGCTGATGAATTATGTTTGTCGAGTAAACAAATTTTCCTAATCTTTCTGTTCAAGCGCCATCTAC tested on MBP-FoxP1dN (Mus musculus, UniProt P58462 326-579).
2.67 RPM ratio (pull-down/input)

Report binding signal for GATGATTGTTCTCCCAGCTGATGAATTATTTGTCTCGAGTAAACAAATTTTCCTAATCTTTCTGTTCAAGCGCCATCTAC tested on MBP-FoxP1dN (Mus musculus, UniProt P58462 326-579).
1.66 RPM ratio (pull-down/input)

Report binding signal for GATGATTGTTCTCCCAGCTGATGAATTTACCGAATCGAGTAAACAAATTTTCCTAATCTTTCTGTTCAAGCGCCATCTAC tested on MBP-FoxP1dN (Mus musculus, UniProt P58462 326-579).
1.37 RPM ratio (pull-down/input)

Report binding signal for GATGATTGTTCTCCCAGCTGATGAATTTCACTAGTCGAGTAAACAAATTTTCCTAATCTTTCTGTTCAAGCGCCATCTAC tested on MBP-FoxP1dN (Mus musculus, UniProt P58462 326-579).
0.76 RPM ratio (pull-down/input)

Report binding signal for GATGATTGTTCTCCCAGCTGATGAATTTACCTCCTCGAGTAAACAAATTTTCCTAATCTTTCTGTTCAAGCGCCATCTAC tested on MBP-FoxP1dN (Mus musculus, UniProt P58462 326-579).
1.07 RPM ratio (pull-down/input)

Report binding signal for GATGATTGTTCTCCCAGCTGATGAATTTGTTATGTCGAGTAAACAAATTTTCCTAATCTTTCTGTTCAAGCGCCATCTAC tested on MBP-FoxP1dN (Mus musculus, UniProt P58462 326-579).
1.55 RPM ratio (pull-down/input)

Report binding signal for GATGATTGTTCTCCCAGCTGATGAATTTATTGACTCGAGTAAACAAATTTTCCTAATCTTTCTGTTCAAGCGCCATCTAC tested on MBP-FoxP1dN (Mus musculus, UniProt P58462 326-579).
1.85 RPM ratio (pull-down/input)

Report binding signal for GATGATTGTTCTCCCAGCTGATGAATTATTGCTATCGAGTAAACAAATTTTCCTAATCTTTCTGTTCAAGCGCCATCTAC tested on MBP-FoxP1dN (Mus musculus, UniProt P58462 326-579).
1.3 RPM ratio (pull-down/input)

Report binding signal for GATGATTGTTCTCCCAGCTGATGAATTGATGACTTCGAGTAAACAAATTTTCCTAATCTTTCTGTTCAAGCGCCATCTAC tested on MBP-FoxP1dN (Mus musculus, UniProt P58462 326-579).
0.994 RPM ratio (pull-down/input)

Report binding signal for GATGATTGTTCTCCCAGCTGATGAATTCTTCCAATCGAGTAAACAAATTTTCCTAATCTTTCTGTTCAAGCGCCATCTAC tested on MBP-FoxP1dN (Mus musculus, UniProt P58462 326-579).
0.955 RPM ratio (pull-down/input)

Report binding signal for GATGATTGTTCTCCCAGCTGATGAATTGAACTTTTCGAGTAAACAAATTTTCCTAATCTTTCTGTTCAAGCGCCATCTAC tested on MBP-FoxP1dN (Mus musculus, UniProt P58462 326-579).
0.887 RPM ratio (pull-down/input)

Report binding signal for GATGATTGTTCTCCCAGCTGATGAATTTATGTTGTCGAGTAAACAAATTTTCCTAATCTTTCTGTTCAAGCGCCATCTAC tested on MBP-FoxP1dN (Mus musculus, UniProt P58462 326-579).
2.86 RPM ratio (pull-down/input)

Report binding signal for GATGATTGTTCTCCCAGCTGATGAATTTAAGGACTCGAGTAAACAAATTTTCCTAATCTTTCTGTTCAAGCGCCATCTAC tested on MBP-FoxP1dN (Mus musculus, UniProt P58462 326-579).
0.845 RPM ratio (pull-down/input)

Report binding signal for GATGATTGTTCTCCCAGCTGATGAATTAAATGTATCGAGTAAACAAATTTTCCTAATCTTTCTGTTCAAGCGCCATCTAC tested on MBP-FoxP1dN (Mus musculus, UniProt P58462 326-579).
1.4 RPM ratio (pull-down/input)

Report binding signal for GATGATTGTTCTCCCAGCTGATGAATTATTTACCTCGAGTAAACAAATTTTCCTAATCTTTCTGTTCAAGCGCCATCTAC tested on MBP-FoxP1dN (Mus musculus, UniProt P58462 326-579).
1.86 RPM ratio (pull-down/input)

Report binding signal for GATGATTGTTCTCCCAGCTGATGAATTTTCACAATCGAGTAAACAAATTTTCCTAATCTTTCTGTTCAAGCGCCATCTAC tested on MBP-FoxP1dN (Mus musculus, UniProt P58462 326-579).
1.29 RPM ratio (pull-down/input)
